Biological target: SGSH (sulfamidase; N-sulfoglucosamine sulfohydrolase) (Homo sapiens, UniProt P51688)
Construct: full-length cDNA with C-terminal RSHHHHHH (residues 503-510), tag kept; secreted from HEK 293 cells, HisTrap purified; signal peptide removed (modelled from residue 21/22); glycosylated; Cys70 converted to formylglycine; homodimer, 55 kDa unglycosylated subunit
Sequence (P51688 21-502): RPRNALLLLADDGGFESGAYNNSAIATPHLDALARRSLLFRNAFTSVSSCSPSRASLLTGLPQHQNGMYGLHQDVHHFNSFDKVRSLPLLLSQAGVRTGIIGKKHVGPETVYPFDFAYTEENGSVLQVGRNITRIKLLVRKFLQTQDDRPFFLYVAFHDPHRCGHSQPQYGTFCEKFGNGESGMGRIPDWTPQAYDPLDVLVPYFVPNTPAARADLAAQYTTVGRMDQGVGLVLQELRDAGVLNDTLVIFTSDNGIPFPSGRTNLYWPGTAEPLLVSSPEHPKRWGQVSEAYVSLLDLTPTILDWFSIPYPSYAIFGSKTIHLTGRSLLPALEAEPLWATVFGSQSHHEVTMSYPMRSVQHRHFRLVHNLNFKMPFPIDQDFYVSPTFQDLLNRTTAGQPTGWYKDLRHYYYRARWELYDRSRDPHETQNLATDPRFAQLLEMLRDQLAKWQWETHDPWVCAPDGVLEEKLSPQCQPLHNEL
Assay: two-step fluorometric assay with MU-alphaGlcNS, alpha-glucosidase coupled
property-name: IC50 (µM)

I = O=P(O)(O)O [phosphate]
II = O=S(=O)(O)O [sulfate]
Input line: Decide: I or II , by lowest recorded IC50. Identify your selection by its label.
Output line: I
(I: 1000 µM, II: 5000 µM)
